ASSAY TARGET: T1, EsCas13d, nuclease-dead (Eubacterium siraeum, UniProt B0MS50, R295A;H300A;R849A;H854A)
T1 sequence: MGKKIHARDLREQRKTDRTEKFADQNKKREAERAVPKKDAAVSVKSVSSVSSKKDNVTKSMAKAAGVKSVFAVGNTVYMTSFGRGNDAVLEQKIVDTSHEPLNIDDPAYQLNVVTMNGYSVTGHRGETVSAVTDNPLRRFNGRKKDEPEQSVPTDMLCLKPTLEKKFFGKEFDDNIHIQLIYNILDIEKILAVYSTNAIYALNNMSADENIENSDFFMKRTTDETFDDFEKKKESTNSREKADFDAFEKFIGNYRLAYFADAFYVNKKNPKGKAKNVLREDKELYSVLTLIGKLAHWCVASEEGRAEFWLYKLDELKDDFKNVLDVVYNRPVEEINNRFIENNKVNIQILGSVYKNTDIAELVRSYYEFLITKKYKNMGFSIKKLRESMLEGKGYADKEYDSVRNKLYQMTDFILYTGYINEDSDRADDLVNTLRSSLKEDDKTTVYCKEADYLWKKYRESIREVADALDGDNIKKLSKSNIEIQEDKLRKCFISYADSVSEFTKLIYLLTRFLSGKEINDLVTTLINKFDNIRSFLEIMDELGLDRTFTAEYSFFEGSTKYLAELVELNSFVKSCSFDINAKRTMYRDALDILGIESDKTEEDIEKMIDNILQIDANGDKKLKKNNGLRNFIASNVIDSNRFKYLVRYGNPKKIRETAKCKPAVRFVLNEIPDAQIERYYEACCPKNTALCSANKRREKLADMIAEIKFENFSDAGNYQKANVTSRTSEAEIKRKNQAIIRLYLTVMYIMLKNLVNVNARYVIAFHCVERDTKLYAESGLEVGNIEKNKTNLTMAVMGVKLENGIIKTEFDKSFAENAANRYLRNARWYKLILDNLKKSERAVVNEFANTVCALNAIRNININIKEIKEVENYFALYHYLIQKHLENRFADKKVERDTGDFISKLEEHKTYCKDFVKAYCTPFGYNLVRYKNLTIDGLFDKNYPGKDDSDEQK
ASSAY DETAILS: crRNA (strand 1, pre-loaded); Mg2+; 40 mM Tris-HCl pH 7.5, 150 mM NaCl, 6 mM MgCl2, 1 mM DTT, 0.1% Tween-20, 0.2 mg/ml BSA; 25 C; 10 min per concentration, then washed
SETTINGS: tags: His6-TwinStrep-SUMO cleaved; N-terminal SNAP kept (SNAP-Surface 488); label: 3' end held by stalled T7 RNA polymerase
MEASURED ENDPOINT: pKd
Remember the convention: pKd equals -log10 of concentration in molar.

# example entries with known answers
# BINDER, pKd
records = [
    ("target 1 MT 5'PFS GAA 3'PFS UCC (mixed) RNA 1: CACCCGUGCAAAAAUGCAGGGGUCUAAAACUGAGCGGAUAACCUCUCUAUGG RNA 2: GGGAAUGGAUCCACAUCUACGAAUUCGAACCAUAGAGAGGUUAUCCGCUCAUCCAGAUCGGAAGAGCACACGU", 7.57),
    ("target 1 G15U (mixed) RNA 1: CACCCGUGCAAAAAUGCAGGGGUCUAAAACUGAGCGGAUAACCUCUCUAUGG RNA 2: GGGAAUGGAUCCACAUCUACGAAUUCGUACCAUAGAUAGGUUAUCCGCUCACCGAGAUCGGAAGAGCACACGU", 7.73),
    ("target 1 MT 5'PFS CAA 3'PFS UAU (mixed) RNA 1: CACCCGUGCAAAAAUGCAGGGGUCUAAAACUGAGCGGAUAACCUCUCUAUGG RNA 2: GGGAAUGGAUCCACAUCUACGAAUUCCAACCAUAGAGAGGUUAUCCGCUCAUAUAGAUCGGAAGAGCACACGU", 7.46),
]

Now for a further binder.
IN: Give the measured pKd of target 2 MT 5'PFS UGC 3'PFS AGA (mixed) RNA 1: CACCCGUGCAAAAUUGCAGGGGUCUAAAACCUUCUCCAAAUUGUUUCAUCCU RNA 2: GGGAAUGGAUCCACAUCUACGAAUUCUGCAGGAUGAAACAAUUUGGAGAAGAGAAGAUCGGAAGAGCACACGU .
OUT: 7.59
